# assayComment: growth suppression of PTEN-deleted HCT116, pilot screen, cell-based, HCT116 clonal line, CellTiter-Glo (AID 824);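 note: 0% = 20 µM Hyamine control and 100% = vehicle cell control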
# conditionSummary: 60 h, at 10 µM, active compounds read low
Inconclusive results are not listed.
propertyName: viability (%)

>>> testvalue("CCOC(=O)c1ccn(-c2nc(-c3ccco3)cc(C(F)(F)F)n2)n1")
97.8
>>> testvalue("Cc1ccc(S(=O)(=O)N(C)CCCC(=O)N2CCOCC2)cc1")
96.1
>>> testvalue("CCc1c(C)sc(NC(=O)c2cc(C)no2)c1C#N")
93.4
>>> testvalue("CC1(C)C(=O)OC(c2cc(Br)ccc2O)C(C)(C)C1=O (stereo not given)")
82.1
>>> testvalue("Cc1nc2sc(C(c3cccs3)N3CCN(C(=O)c4ccco4)CC3)c(O)n2n1 (stereo not given)")
100

* * *

# assayComment: viability gain of MRP-1-high H69AR cells under doxorubicin, pilot screen, MRP-1 activator project, CellTiter-Glo, duplicate (AID 807);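 note: compound pretreatment 18-22 h then 72 h combined with doxorubicin; 0% = doxorubicin alone and 100% = vehicle without doxorubicin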
# conditionSummary: H69AR viability with doxorubicin, CellTiter-Glo luminescence; at 10 µM; active compounds read high
propertyName: viability increase (%)

>>> testvalue("Cn1c(NC(=O)CCc2ccccc2)cc(=O)n(C)c1=O")
-3.77
>>> testvalue("c1coc(C2Nc3ccccc3-c3nc4ccccc4n32)c1 (centres undefined)")
-4.32
>>> testvalue("COCCNC(=O)C1c2cc(OC)c(OC)cc2C(=O)N(C)C1c1cccnc1 (centres undefined)")
0.41
>>> testvalue("CN(C)S(=O)(=O)c1ccc2c(c1)c(=O)c(C(=O)N1CCOCC1)cn2C")
0.13

* * *

# assayComment: RAM signaling pathway blockade in yeast – S. cerevisiae, Pdr1DBD-CYC8 efflux-inhibited sensitized strain, primary screen (AID 1298);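 note: 0% = DMSO untreated cells without growth and 100% = 10 µM 1-NA-PP1 full growth; higher means more yeast growth rescued from 5-FOA killing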
# conditionSummary: S. cerevisiae cbk1-as DSE1-URA3 strain, 5-FOA growth OD615, 2 d; at 50 µM; active compounds read high
Measured RAM network inhibition values are reported for all entries that follow.
propertyName: RAM network inhibition (%)

>>> testvalue("O=C(NCCC1=CCCCC1)C1CCCN(S(=O)(=O)c2cccnc2)C1 (configuration not stated)")
1.4
>>> testvalue("Cc1ccc(-c2ccc(CCC(=O)O)n2CC(=O)O)cc1")
1.3
>>> testvalue("Cc1cc(Nc2cccc(F)c2)n2ncnc2n1")
0.16
>>> testvalue("CCOC(=O)CSc1nnc(Cn2c(=O)sc3ccccc32)n1-c1ccccc1C")
2.24
>>> testvalue("COc1ccc(CNC(=O)C2CCN(S(=O)(=O)c3cccc4cccnc34)CC2)cc1")
2.66
>>> testvalue("CN1C(=O)NC(c2ccccc2)C2=C1CN(Cc1ccco1)C2=O (configuration not stated)")
3
>>> testvalue("CCNC(=O)c1c(C)nc2ccccn12")
0.67
>>> testvalue("CCOC(=O)c1ccc(Nc2nnc(C(C)(C)C)c(=O)[nH]2)cc1")
2.06
>>> testvalue("CCn1c(SCC(=O)Nc2ccccc2C(=O)OC)nc2c1c(=O)n(C)c(=O)n2C")
5.2
>>> testvalue("Cc1sc2ncn(CC(=O)NCc3ccccn3)c(=O)c2c1S(=O)(=O)N1CCOCC1")
3.01
>>> testvalue("CCOC(=O)N1CCN(C(=O)CCSc2ccccc2)CC1")
0.95
>>> testvalue("O=c1nc2scc(-c3ccccc3)n2c2ccccc12")
7.95
>>> testvalue("Cc1ccc(C2CC(c3ccccc3)n3ncnc3N2)cc1 (configuration not stated)")
1.8
>>> testvalue("Cc1oc(-c2cccs2)nc1CS(=O)CC(=O)NC1CCCCCC1 (configuration not stated)")
-1.22
>>> testvalue("O=C1CC(c2ccc(S(=O)(=O)NC3CC3)cc2)CN1 (configuration not stated)")
-0.6
>>> testvalue("C=CCNc1ncnc2c1cnn2-c1cccc(C)c1")
0.06
>>> testvalue("CC(C)C(=O)Nc1c(C(=O)c2ccc(F)cc2)oc2ccccc12")
1.81
>>> testvalue("O=C(NC1CCCCCC1)c1nnc(Cc2ccc(Cl)cc2)o1")
2.19
>>> testvalue("CN1C[N+]([O-])=C(c2ccccc2)C1(C)C")
1.81
>>> testvalue("CCN1CCN(CC(=O)Nc2ccc3c(c2)OCO3)C(=O)C1=O")
6.72
>>> testvalue("CCC(CC)c1nnc(NC(=O)c2c(-c3ccccc3)noc2C)s1")
2.57
>>> testvalue("CCOC(=O)N1CCN(c2ncnc3nc[nH]c23)CC1")
4.23
>>> testvalue("CCCn1c(=S)[nH]c2cc(C(=O)NCC3CCCO3)ccc2c1=O (configuration not stated)")
2.81
>>> testvalue("CCOC(=O)NC(Nc1cc(C)ccn1)(C(F)(F)F)C(F)(F)F")
-1.18
>>> testvalue("O=C(c1ccccc1)c1ccc2nc(N3CCN(C(=O)c4ccco4)CC3)c3nncn3c2c1")
-0.16
>>> testvalue("CCOC(=O)NC(Nc1ncccn1)(C(F)(F)F)C(F)(F)F")
0.47
>>> testvalue("O=C(NCc1ccccn1)c1cc2ccccn2n1")
3.25
>>> testvalue("CC(=O)NC1(c2ccccc2)CCN(Cc2nnnn2C(C)(C)C)CC1")
1.62
>>> testvalue("Cc1c2cn[nH]c(=O)c2c(C)n1Cc1ccc(F)cc1")
5.11
>>> testvalue("COc1ccc(N=C(C)C2=C(O)COC2=O)cc1")
5.23
>>> testvalue("O=C(O)c1ccccc1SC1CC(=O)N(C2CCCCC2)C1=O (configuration not stated)")
1.06
>>> testvalue("Cc1nccn1-c1ncnc2sc3c(c12)CCCC3")
2.86
>>> testvalue("Cc1ccc(CNC(=O)CS(=O)Cc2nc(-c3cccs3)oc2C)cc1 (configuration not stated)")
2.88
>>> testvalue("Cc1cccc(OCC(=O)NCc2ccncc2)c1C")
4.22
>>> testvalue("Cn1nc(-c2ccc(Cl)cc2)c2cc(C(=O)N3CCN(c4ccccn4)CC3)sc21")
4.7
>>> testvalue("CCS(=O)(=O)NCC(c1cccnc1)N1CCN(c2ccccc2OC)CC1 (configuration not stated)")
3.37
>>> testvalue("COc1ccc(N)cc1C#N")
1.63
>>> testvalue("C=CCc1c(C)nc(SCc2nc3ccccc3c(=O)[nH]2)[nH]c1=O")
1.65
>>> testvalue("CNC(=O)c1sc2nc(-c3ccc(OC)cc3)cn2c1C")
0.64
>>> testvalue("Cc1nn(Cc2c(Cl)cccc2Cl)c(C)c1NC(=O)c1cc(C(C)C)on1")
2.56
>>> testvalue("COc1ccccc1CNC(=O)Cn1cc2c(n1)CCCC2")
3.05
>>> testvalue("COC(=O)C(C(=O)OC)C(C(C)C)C(C(=O)OC)C(=O)OC")
3.68

* * *

# assayComment: viability gain of MRP-1-high H69AR cells under doxorubicin, pilot screen, MRP-1 activator project, CellTiter-Glo, duplicate (AID 807);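 note: compound pretreatment 18-22 h then 72 h combined with doxorubicin; 0% = doxorubicin alone and 100% = vehicle without doxorubicin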
# conditionSummary: H69AR viability with doxorubicin, CellTiter-Glo luminescence; at 10 µM; active compounds read high
propertyName: viability increase (%)

>>> testvalue("O=C(NCCN1CCc2ccccc2C1)Nc1ccc(F)cc1")
-3.99
>>> testvalue("Cc1csc2ncc(C(=O)NCc3ccccn3)c(=O)n12")
-0.65
>>> testvalue("O=C(c1ccccc1)N1CCN(C2CC(=O)N(CCc3ccccc3)C2=O)CC1 (stereo not drawn)")
1.3
>>> testvalue("Fc1ccc(-n2[nH]nnc2=S)cc1N1CCCC1")
-1.28
>>> testvalue("COc1ccc(NC(=O)CN(c2cc(C)cc(C)c2)S(=O)(=O)c2c(C)noc2C)cc1")
-2.45
>>> testvalue("CCOC(=O)N1CCC(N2C(=O)c3cc(C(=O)NC4CCCCC4)ccc3C2O)CC1 (stereo not drawn)")
-3.03
>>> testvalue("CCOC(=O)N1CCN(C(=O)c2oc(=O)c3ccccc3c2-c2ccc(C)cc2)CC1")
1.15
>>> testvalue("O=C(NCc1ccc(F)cc1)c1cc2n(n1)C(C(F)(F)F)CC(C1CC1)N2 (stereo not drawn)")
-0.43
>>> testvalue("COc1cccc(C2CC(c3cccc(OC)c3)n3nc(N)nc3N2)c1 (stereo not drawn)")
-2.05
>>> testvalue("O=C(O)c1cc(S(=O)(=O)N2CCCCCC2)c(Cl)cc1Cl")
-0.57
>>> testvalue("COc1ccccc1NC(=O)CSc1nnnn1C")
-1.03
>>> testvalue("COc1ccc(NC(=O)CSc2nnc(Cn3c(=O)sc4ccccc43)n2C)cc1")
-4.99
>>> testvalue("COc1ccc(N2CCN(C(=O)c3sc4nc(-c5ccc(F)cc5)cn4c3C)CC2)cc1")
-4.7

* * *

# assayComment: growth suppression of PTEN-deleted HCT116, pilot screen, cell-based, HCT116 clonal line, CellTiter-Glo (AID 824);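 note: 0% = 20 µM Hyamine control and 100% = vehicle cell control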
# conditionSummary: 60 h, at 10 µM, active compounds read low
Inconclusive results are not listed.
propertyName: viability (%)

>>> testvalue("CCOC(=O)c1c(N)sc(C(N)=O)c1C")
97.3
>>> testvalue("Cc1noc(C(=O)NCc2cccnc2)c1Cl")
101
>>> testvalue("CCOc1ccccc1N(CC)C(=O)Cn1ncc2c(=O)oc3ccccc3c21")
96.2
>>> testvalue("Cc1nn2c(=O)cc(CSc3nc4ccccc4[nH]3)nc2s1")
103
>>> testvalue("CCCCn1ccc(=O)c2c(C(F)(F)F)nccc21")
84.4
